Value source: patent US12344610B2

Readings of log10(EC50) for the listed compounds
- Tested on: HEK293 clonal cell line overexpressing APOL1 G1
- METHOD_DESCRIPTION: APOL1 G1 HEK293 cell rescue assay (Example B3)
- Format: cell-based
- RECORDED_CONDITIONS: Homo sapiens, HEK293, HEK293 clonal line overexpressing APOL1 G1; geometric mean of at least 2 runs; † = single run; ¥ = concentration at 50% rescue estimated (no sigmoidal curve)
# values: log10(EC50), units nM

Use the examples below as a reference point.
COMPOUND	MEASURED_VALUE
C[C@]1(O)C[C@@H](N2C(=O)CCc3cc(OCCN4CCC5(CC4)C(=O)Nc4c(Cl)cc(Cl)cc45)cnc32)C1	2.13
O=C1NCC2c3ccc(OCCN4CCC5(CC4)C(=O)Nc4ccc(Cl)cc45)cc3CCN12 (centres unmarked) [Compound 115]	2.30
[2H]C([2H])(Oc1cc(C(F)(F)F)c2c(c1)ncn2[C@H]1C[C@@](C)(O)C1)C([2H])([2H])N1CCC2(CC1)C(=O)Nc1ccc(Cl)cc12	1.12
CN(C)C(=O)C1(c2ccc(OCCN3CCC4(CC3)C(=O)Nc3ccc(C#N)cc34)cc2)COC1	3.31
O=C1Nc2ccc(Cl)cc2C12CCN(CCOc1cnc(C3(O)CC3)nc1)CC2	2.29
C[C@]1(O)C[C@H](n2ncc3cc(OCCN4CCC5(CC4)C(=O)Nc4ccc(C#N)cc45)cnc32)C1	2.38
CCS(=O)(=O)C1(c2ccc(OCCN3CCC4(CC3)C(=O)Nc3ccc(C#N)cc34)cc2)COC1	2.40
C[C@]1(O)C[C@@H](n2cnc3cc(OCCN4CCC5(CC4)C(=O)Nc4ccc(Cl)cc45)ccc32)C1	2.48
CC(C)(c1ccc(OCCN2CCC3(CC2)C(=O)Nc2ccc(C#N)cc23)cn1)S(C)(=O)=O	2.45
[2H]C([2H])([2H])N1C(=O)C2(CCN(CCOc3cnc(C4(S(C)(=O)=O)COC4)nc3)CC2)c2cc(Cl)ccc21	2.22

Entry "CS(=O)(=O)C1(c2ccc(OCCN3CCC4(CC3)C(=O)Nc3ccc(Cl)cc34)cc2)COC1" — recorded log10(EC50) = 1.86

Briefly, log10(EC50) measured for C[C@@H](COc1cc(F)c(S(C)(=O)=O)c(F)c1)N1CCC2(CC1)C(=O)Nc1ccc(C#N)cc12 (single isomer, unassigned) : 2.70

The recorded log10(EC50) for "C[C@]1(O)C[C@@H](n2c(=O)ccc3cc(OCCN4CCC5(CC4)C(=O)Nc4ccc(Cl)cc45)cnc32)C1" is 1.56

---

- System: HEK293 clonal cell line overexpressing APOL1 G1
- METHOD_DESCRIPTION: APOL1 G1 HEK293 cell rescue assay (Example B3)
- Assay type: cell-based
- RECORDED_CONDITIONS: Homo sapiens, HEK293, HEK293 clonal line overexpressing APOL1 G1; geometric mean of at least 2 runs; † = single run; ¥ = concentration at 50% rescue estimated (no sigmoidal curve)
pEC50: −log10 of the molar value.
# label = Condition met if pEC50 >= 7 else Condition not met

Reference set, count: 3
MOLECULE	CLASS_ASSIGNMENT
C[C@]1(O)C[C@@H](n2nnc3cc(OCCN4CCC5(CC4)C(=O)Nc4ccc(Cl)cc45)cc(C(F)(F)F)c32)C1 [Compound 434]	Condition met
CC(c1ccc(OCCN2CCC3(CC2)C(=O)Nc2ccc(C#N)cc23)cc1)S(C)(=O)=O (single isomer, unassigned) [Compound 134]	Condition not met
O=C1Nc2ccc(Cl)cc2C12CCN(CCOc1ccc(S(=O)(=O)C3(C(=O)N4CCC4)CC3)cc1)CC2 [Compound 228]	Condition not met

Now for another entry.
Q: Is pEC50 at least 7? Consider CC(c1c(F)cc(OCCN2CCC3(CC2)C(=O)Nc2ccc(C#N)cc23)cc1F)S(C)(=O)=O (stereo not shown) [Compound 137]
Result: Condition not met

---

- System: Trypanosoma brucei Lister 427 VSG221 with APOL1 G1 recombinant protein
- METHOD_DESCRIPTION: APOL1 G1 trypanosome cell rescue assay (Example B5)
- Type: cell-based
- RECORDED_CONDITIONS: Trypanosoma brucei, 20 h, read-out: APOL1 G1 Trypanosome Rescue EC50, Trypanosoma brucei Lister 427 VSG221 with APOL1 G1 recombinant protein, 20 hours, CellTiter-Glo; geometric mean of at least 2 assay runs; † = single assay run
- From the text: APOL1 G0/G1/G2 viability assay for measurement of cytotoxicity reversal by compound in trypanosomes (APOL1 G0/G1/G2 trypanosome cell rescue assay). APOL1 protein expression and purification. […] Assay Setup. […] Assay ready plates were generated with duplicate 11-point compound dilution series that consisted of 2-fold stepwise dilutions (0.4% DMSO final). […] Trypanosomes were counted using a hemacytometer and diluted in modified HMI-9 media to a concentration of 1.25×10^4 cell/mL. […]
# reported pEC50; entries follow
Here pEC50 is given on a logarithmic scale as minus log10 of the concentration in mol/L.

Consider the following illustrative entries.
CC(C)(O)c1ncc(OCCN2CCC3(CC2)C(=O)Nc2ccc(Cl)cc23)cc1C(F)(F)F 7.66
CS(=O)(=O)C1(c2ccc(OCCN3CCC4(CC3)C(=O)Nc3ccc(Cl)cc34)cc2)CCOCC1 7.02
CCS(=O)(=O)C1(c2ccc(OCCN3CCC4(CC3)C(=O)Nc3ccc(C#N)cc34)cc2)COC1 6.32
O=C1Nc2ccc(Cl)cc2C12CCN(CCOc1ccc(S(=O)(=O)C3(CO)CC3)cc1)CC2 7.29
O=C1Nc2ccc(Cl)cc2C12CCN(CCOc1cnc3c(N4CC(O)C4)ncnc3c1)CC2 7.06

// field: pEC50; key: "CS(=O)(=O)c1c(F)cc(OCCN2CCC3(CC2)C(=O)Nc2ccc(Cl)cc23)cc1F" ; value = 6.94

Entry "C[C@]1(O)C[C@@H](n2c(=O)ccc3cc(OCCN4CCC5(CC4)C(=O)Nc4ccc(OC(F)F)cc45)cnc32)C1" ; pEC50 = 7.04

---

Below, each of the compounds is paired with its reported log10 EC50 value.
- Tested on: HEK293 clonal cell line overexpressing APOL1 G1
- METHOD_DESCRIPTION: APOL1 G1 HEK293 cell rescue assay (Example B3)
- Format: cell-based
- RECORDED_CONDITIONS: Homo sapiens, HEK293, HEK293 clonal line overexpressing APOL1 G1; geometric mean of at least 2 runs; † = single run; ¥ = concentration at 50% rescue estimated (no sigmoidal curve)
Response schema: value (number) is log10 of EC50 in units of nM.

Solved cases (10 shown):
COMPOUND	MEASURED_VALUE
CC(COc1ccc(S(C)(=O)=O)cc1)N1CCC2(CC1)C(=O)Nc1ccccc12 (stereo not drawn)	2.82
CS(=O)(=O)C1(c2ccc(OCCN3CCC4(CC3)C(=O)Nc3ccc(C#N)cc34)cc2C(F)(F)F)COC1	2.21
O=C1Nc2ccc(Cl)cc2C12CCN(CCOc1ccc(C3CCCS3(=O)=O)cc1)CC2 (stereo not drawn) [Compound 175]	2.18
CS(=O)(=O)c1ccc(OCCN2CCC3(CC2)C(=O)Nc2ccc(Cl)cc23)cc1OC(F)F	2.05
[2H]C([2H])([2H])N1C(=O)C2(CCN(CCOc3cc(F)c4c(c3)CCNS4(=O)=O)CC2)c2cc(Cl)ccc21	1.92
Cc1cc(OCCN2CCC3(CC2)C(=O)Nc2ccc(C#N)cc23)ccc1S(C)(=O)=O	2.39
CC(=O)N1CCCc2cc(OCCN3CCC4(CC3)C(=O)Nc3ccc(Cl)cc34)cnc21	2.25
CC(C)N1C(=O)CCc2cc(OCCN3CCC4(CC3)C(=O)Nc3ccc(Cl)cc34)ccc21	2.16
COC(=O)C1(S(=O)(=O)c2ccc(OCCN3CCC4(CC3)C(=O)Nc3ccc(Cl)cc34)cc2)CC1	2.00
CC(c1c(F)cc(OCCN2CCC3(CC2)C(=O)Nc2ccc(C#N)cc23)cc1F)S(C)(=O)=O (single isomer, unassigned) [Compound 138]	2.40

Input O=C(NC1CCS(=O)(=O)C1)c1ccc(OCCN2CCC3(CC2)C(=O)Nc2ccc(Cl)cc23)cc1F (single isomer, unassigned) [Compound 242] . Output log10 EC50: 2.50

So for "O=C1CCc2cc(OCCN3CCC4(CC3)C(=O)Nc3ccc(Cl)cc34)cnc2N1CCO" , the logged log10 EC50 turned out to be 2.10

Measured log10 EC50 of "[2H]C([2H])([2H])N1C(=O)C2(CCN(CCOc3ccc(C4(S(=O)(=O)C(C)C)COC4)cc3)CC2)c2cc(Cl)ccc21" : 2.04

Form: compound = CC1(O)CC(n2ncc3cc(OCCN4CCC5(CC4)C(=O)Nc4ccc(C#N)cc45)cnc32)C1 (stereo not drawn) ; log10 EC50 = 2.06

Input "CC1(O)CN(c2nccc3cc(OCCN4CCC5(CC4)C(=O)Nc4ccc(Cl)cc45)cnc23)C1" . Output log10 EC50: 2.39

Given item "CC(=O)N1Cc2ccc(OCCN3CCC4(CC3)C(=O)Nc3ccc(Cl)cc34)cc2C1" , the value recorded as its log10 EC50 is 2.59

Sure, the documented log10 EC50 for "CN1C(=O)C2(CCN(CCOc3ccc(-c4cnn(C)c4)cc3)CC2)c2ccccc21" is 3.20
